Below, each of the binders is paired with its reported Fold Difference (Control IC50) value.
- target or system: RSV F protein on respiratory syncytial virus (RSV-Long strain) (respiratory syncytial virus (Long strain)) (UniProt P12568)
- Sequence (P12568 26-574): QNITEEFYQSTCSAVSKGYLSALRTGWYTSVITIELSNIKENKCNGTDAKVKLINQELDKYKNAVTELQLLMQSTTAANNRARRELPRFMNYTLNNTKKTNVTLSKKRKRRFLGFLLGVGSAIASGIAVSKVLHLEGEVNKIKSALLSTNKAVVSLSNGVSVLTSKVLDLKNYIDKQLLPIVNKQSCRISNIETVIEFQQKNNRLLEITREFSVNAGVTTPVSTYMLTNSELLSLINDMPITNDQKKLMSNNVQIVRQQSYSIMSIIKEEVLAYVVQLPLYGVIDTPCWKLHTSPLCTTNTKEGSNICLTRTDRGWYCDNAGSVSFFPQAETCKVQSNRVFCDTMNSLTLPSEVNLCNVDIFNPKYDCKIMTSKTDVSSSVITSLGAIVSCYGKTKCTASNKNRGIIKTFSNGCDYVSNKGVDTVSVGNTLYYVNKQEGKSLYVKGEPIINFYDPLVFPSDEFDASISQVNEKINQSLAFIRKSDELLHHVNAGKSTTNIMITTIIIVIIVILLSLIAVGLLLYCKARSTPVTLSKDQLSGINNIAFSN
- test summary: cell-based or functional assay
# value in fold; strip the unit string

binder	reported result
A13c4 monoclonal antibody (antibody, V domains shown) VH: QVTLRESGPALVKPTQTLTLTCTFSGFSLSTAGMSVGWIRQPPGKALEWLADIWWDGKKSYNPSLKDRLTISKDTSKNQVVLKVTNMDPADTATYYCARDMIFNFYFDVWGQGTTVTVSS VL: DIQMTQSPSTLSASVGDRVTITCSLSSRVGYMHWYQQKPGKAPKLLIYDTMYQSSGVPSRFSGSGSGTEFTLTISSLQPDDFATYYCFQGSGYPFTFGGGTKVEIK	14

Pending binder:
Q: Tell me the measured Fold Difference (Control IC50) of A1e9 monoclonal antibody (antibody, V domains shown) VH: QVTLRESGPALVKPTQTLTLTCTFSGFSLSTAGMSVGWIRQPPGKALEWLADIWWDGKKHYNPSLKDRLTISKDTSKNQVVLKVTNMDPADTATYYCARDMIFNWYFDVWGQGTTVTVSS VL: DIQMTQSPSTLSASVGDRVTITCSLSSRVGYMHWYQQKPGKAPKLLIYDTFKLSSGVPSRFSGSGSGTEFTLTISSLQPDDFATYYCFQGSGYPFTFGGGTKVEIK , please.
Result: 8
